biological target: A2B adenosine receptor (Homo sapiens, UniProt P29275); construct: Aliquots of neutrophil membranes (0.2–0.4 mg proteins) were incubated in a final volume of 250 μl T2 buffer; test: [3H]NECA binding to A2B AR in neutrophil membranes (plus CPA and SCH58261); details: read-out: [^3H]NECA Ki; control neutrophil membranes; competition with 20 nmol/l [3H]NECA plus 50 nmol/l CPA and 100 nmol/l SCH58261; mean ± SEM of three experiments; Cheng and Prusoff
Sequence (P29275 whole entry): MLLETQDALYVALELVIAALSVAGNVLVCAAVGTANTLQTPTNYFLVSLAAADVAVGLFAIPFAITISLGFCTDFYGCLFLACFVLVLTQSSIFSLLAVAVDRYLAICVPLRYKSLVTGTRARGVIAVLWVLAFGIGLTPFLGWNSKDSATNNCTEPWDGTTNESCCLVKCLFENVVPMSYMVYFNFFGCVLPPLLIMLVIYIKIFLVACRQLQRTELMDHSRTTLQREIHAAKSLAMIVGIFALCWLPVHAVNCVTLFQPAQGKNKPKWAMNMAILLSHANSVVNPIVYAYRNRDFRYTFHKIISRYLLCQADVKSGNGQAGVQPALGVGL
# pKi per record follows
As a rule, pKi stands for the negative log10 of the concentration, concentration in M.

Nc1nc(Cl)nc2c1ncn2[C@@H]1O[C@H](CO)[C@@H](O)[C@H]1O; 6.02

Q: Return reported pKi. Input compound: `CCCn1c(=O)c2[nH]c(-c3ccc(OCC(=O)Nc4ccc(C(C)=O)cc4)cc3)nc2n(CCC)c1=O`
Result: 8.30
